Measured values drawn from the supplement of paper PMC11061612 for this set.

Measured Bliss excess, listed per entry for reference.
System: NCI-H2085 (Non-Small Cell Lung Carcinoma);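 also: after 72 h of two-drug dosing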
TEST_DESCRIPTION: Bliss excess, mean over the matrix (fraction); higher = more synergy
In your answer, state the number alone without any accompanying words.

{"COMPOUND": "NC1(C(=O)N[C@@H](CCO)c2ccc(Cl)cc2)CCN(c2ncnc3[nH]ccc23)CC1 [Capivasertib] + CCN(CCO)CCCOc1ccc2c(Nc3cc(CC(=O)Nc4cccc(F)c4)[nH]n3)ncnc2c1 [AZD2811] (first compound max 10 µM, 7x7, partner max 1 µM)", "TARGET_OR_TEST_SYSTEM": "NCI-H2085 (Non-Small Cell Lung Carcinoma)", "Bliss excess": -0.0318}
{"COMPOUND": "COc1nnc2ccc(N3CCC(c4ccc(OCCN5CCN(C)C(=O)[C@H]5C)cc4)CC3)nn12 [AZD5153] + CCN(CCO)CCCOc1ccc2c(Nc3cc(CC(=O)Nc4cccc(F)c4)[nH]n3)ncnc2c1 [AZD2811] (first compound max 1 µM, 7x7, partner max 1 µM)", "TARGET_OR_TEST_SYSTEM": "NCI-H2085 (Non-Small Cell Lung Carcinoma)", "Bliss excess": -0.0594}

Task item: Would you kindly share the measured Bliss excess for Cc1cc2ncnn2cc1Nc1ncc2c(n1)n(C1CCOCC1)c(=O)n2C [AZD7648] + COc1cc([C@@H]2c3cc4c(cc3[C@@H](O[C@@H]3O[C@@H]5CO[C@@H](C)O[C@H]5[C@H](O)[C@H]3O)[C@H]3COC(=O)[C@H]23)OCO4)cc(OC)c1O [Etoposide] (first compound max 10 µM, 7x7, partner max 10 µM) ?
Reply: 0.0734
